Below are IC50 values measured for UniProt P97612.
Sequence (P97612 whole entry): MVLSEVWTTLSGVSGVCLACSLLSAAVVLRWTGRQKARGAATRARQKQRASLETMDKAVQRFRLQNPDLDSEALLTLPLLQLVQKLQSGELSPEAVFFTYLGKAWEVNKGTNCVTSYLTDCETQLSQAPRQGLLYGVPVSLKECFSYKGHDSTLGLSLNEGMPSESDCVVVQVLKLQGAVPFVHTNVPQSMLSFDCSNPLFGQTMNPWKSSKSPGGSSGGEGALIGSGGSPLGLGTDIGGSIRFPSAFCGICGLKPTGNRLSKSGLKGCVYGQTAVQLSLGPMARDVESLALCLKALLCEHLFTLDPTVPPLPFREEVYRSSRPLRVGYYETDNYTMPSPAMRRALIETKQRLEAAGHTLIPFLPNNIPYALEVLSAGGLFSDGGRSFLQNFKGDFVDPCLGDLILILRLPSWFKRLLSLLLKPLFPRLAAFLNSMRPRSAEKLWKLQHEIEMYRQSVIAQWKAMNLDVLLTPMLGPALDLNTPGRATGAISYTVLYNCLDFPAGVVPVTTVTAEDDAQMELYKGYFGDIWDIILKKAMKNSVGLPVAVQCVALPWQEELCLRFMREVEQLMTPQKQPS
quantity kind: IC50 (nM)

Consider the following illustrative entries.
compound | display unit | IC50
O=C(COc1ccc(-c2ccc(F)cc2)cc1)Cn1nnc2ccccc21 | nM | 12
CC(C(=O)COc1ccc(-c2ccccc2)cc1)n1nnc2ccccc21 (stereo unspecified) | nM | 630
CCCCCCCCc1ccc(OCC(=O)Cn2ncc3ccccc32)cc1 | nM | 2300

I = CCCCCCCCc1ccc(OCC(=O)Cn2cncn2)cc1
II = CCC(Oc1ccc(-c2ccccc2)cc1)C(=O)Cn1nnc2ccccc21 (stereo unspecified)
[in] Could you determine which record has the numerically smaller IC50? Candidates: I and II Selection: enter the item's label.
[out] I
(I: 53 nM, II: 1800 nM)
